Test system: biotinyl-Leu-oxazolone
Assay: self-aminoacylation, catalytic enhancement (BLO) (fold over background); higher = more active; k-Seq, kA / k0A0; sequences stand for … in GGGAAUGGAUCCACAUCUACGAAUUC…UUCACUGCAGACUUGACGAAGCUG
This sample holds only a part of the variants without activity.
Using self-aminoacylation as the sorting value, the categories are lower range = under 1, middle range = from 1 up to 4, upper range = 4 and over

Query: Which bin should I file CCACACUUCAAGCCAUUGGUC [Fam1B.1 aminoacylation ribozyme variant] under?
Result: lower range

Query: Would you kindly repeat that for UUUAGCCUGGUCAUCGAGUGA [Fam2.1 aminoacylation ribozyme variant] ?
Result: upper range

Query: Would you kindly repeat that for AUUAUCCUGGUCAUAGAGUGA [Fam2.1 aminoacylation ribozyme variant] ?
Result: upper range

Query: Would you kindly repeat that for CCACACCUUAAGCAAUCGGUC [Fam1B.1 aminoacylation ribozyme variant] ?
Result: middle range

Query: Would you kindly repeat that for AUUCCCCUCGUCAUCGAGUGA [Fam2.1 aminoacylation ribozyme variant] ?
Result: upper range

Query: Would you kindly repeat that for AUUACCCUGGCCAUCGAGUCA [Fam2.1 aminoacylation ribozyme variant] ?
Result: lower range

Query: Would you kindly repeat that for AAGUUUGCUAAUCGUCGCUAG [Fam3.1 aminoacylation ribozyme variant] ?
Result: lower range

Query: Would you kindly repeat that for CCACCCUUCAAGCAAUCGGUC [Fam1B.1 aminoacylation ribozyme variant] ?
Result: middle range

Query: Would you kindly repeat that for CCACACUUCAAGGAAUCGGUA [Fam1B.1 aminoacylation ribozyme variant] ?
Result: middle range

Query: Would you kindly repeat that for CUACUUCAAACAAUCGGUCCA [Fam1A.1 aminoacylation ribozyme variant] ?
Result: lower range

Query: Would you kindly repeat that for AUUAUCCUAGUCAUCGAGUGA [Fam2.1 aminoacylation ribozyme variant] ?
Result: upper range

Query: Would you kindly repeat that for CCACACUUCAAGCACUCGGGC [Fam1B.1 aminoacylation ribozyme variant] ?
Result: middle range

Query: Would you kindly repeat that for CUACGUCAAGCAAUCGGUCUG [Fam1A.1 aminoacylation ribozyme variant] ?
Result: middle range

Query: Would you kindly repeat that for CUACUACAAACAAUCGGUCAG [Fam1A.1 aminoacylation ribozyme variant] ?
Result: lower range

Query: Would you kindly repeat that for AUUACCCUGGUCACCGAGUGG [Fam2.1 aminoacylation ribozyme variant] ?
Result: middle range

Query: Would you kindly repeat that for AUUACUCUGGUCAUCGAGUGG [Fam2.1 aminoacylation ribozyme variant] ?
Result: middle range

Query: Would you kindly repeat that for CUUCACCUAGGUCACCGGGUG [Fam2.2 aminoacylation ribozyme variant] ?
Result: upper range

Query: Would you kindly repeat that for GAGUUAGCUAAUAGUCGCAAG [Fam3.1 aminoacylation ribozyme variant] ?
Result: middle range

Query: Would you kindly repeat that for AUUCACCUAGGUCUUCGGGGG [Fam2.2 aminoacylation ribozyme variant] ?
Result: middle range

Query: Would you kindly repeat that for AUGCACCUAGGUAAUCGGGUG [Fam2.2 aminoacylation ribozyme variant] ?
Result: middle range

Query: Would you kindly repeat that for CUAGUCCAAACAAUCGGUCUG [Fam1A.1 aminoacylation ribozyme variant] ?
Result: lower range

Query: Would you kindly repeat that for GUUCACCUAGGUCAUCGCGUG [Fam2.2 aminoacylation ribozyme variant] ?
Result: upper range

Query: Would you kindly repeat that for CUUAACCUGGUCAUCGAGUGA [Fam2.1 aminoacylation ribozyme variant] ?
Result: upper range

Query: Would you kindly repeat that for UCACACUUCAAGCAAUCGAUC [Fam1B.1 aminoacylation ribozyme variant] ?
Result: lower range

Query: Would you kindly repeat that for CCACACUUCAAGCAUUCGGAC [Fam1B.1 aminoacylation ribozyme variant] ?
Result: lower range

Query: Would you kindly repeat that for AUUACCCUGGUCAUCGAGGCA [Fam2.1 aminoacylation ribozyme variant] ?
Result: middle range

Query: Would you kindly repeat that for AAGUUUGCUAAUAGUGGCAAA [Fam3.1 aminoacylation ribozyme variant] ?
Result: lower range

Query: Would you kindly repeat that for CGACUUCAAACAAUCCGUCUG [Fam1A.1 aminoacylation ribozyme variant] ?
Result: middle range

Query: Would you kindly repeat that for AUUCACCUUGAUCAUCGGGUG [Fam2.2 aminoacylation ribozyme variant] ?
Result: middle range

Query: Would you kindly repeat that for AUUACCCUGGUCAUCGAUUGC [Fam2.1 aminoacylation ribozyme variant] ?
Result: lower range

Query: Would you kindly repeat that for AUUACCCUGGUCAUCGGGUGG [Fam2.1 aminoacylation ribozyme variant] ?
Result: upper range

Query: Would you kindly repeat that for AUGAGCCUGGUCAUCGAGUGA [Fam2.1 aminoacylation ribozyme variant] ?
Result: upper range

Query: Would you kindly repeat that for AUUACCCUGGUCAACGAGGGA [Fam2.1 aminoacylation ribozyme variant] ?
Result: middle range

Query: Would you kindly repeat that for AAGUUUCCUAAUAGUCGCAAC [Fam3.1 aminoacylation ribozyme variant] ?
Result: middle range
